# assayed.system: Cad1 (UniProt P24813)
# Sequence: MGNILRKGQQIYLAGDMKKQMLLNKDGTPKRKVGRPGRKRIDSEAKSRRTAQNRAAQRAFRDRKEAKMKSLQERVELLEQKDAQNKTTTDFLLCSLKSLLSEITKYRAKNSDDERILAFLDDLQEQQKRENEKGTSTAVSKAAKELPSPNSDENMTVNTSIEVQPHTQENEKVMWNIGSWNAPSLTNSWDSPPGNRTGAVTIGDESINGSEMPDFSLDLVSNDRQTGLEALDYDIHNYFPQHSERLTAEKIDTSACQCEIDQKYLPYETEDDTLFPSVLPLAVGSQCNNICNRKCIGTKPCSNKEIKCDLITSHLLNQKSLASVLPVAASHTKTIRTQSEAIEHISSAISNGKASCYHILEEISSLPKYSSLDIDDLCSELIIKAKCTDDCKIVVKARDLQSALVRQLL
# method: PBM E-score (8-mer binding enrichment) (E-score (-0.5 to 0.5)); higher = stronger / more preferred TF binding
# experimental.context: protein concentration: 100 nM; construct: GST-full length
In all, about 33,000 sequences were measured (“E-score (-0.5 to 0.5)”: median about -0.0014, highest 2% from about 0.25 on). This excerpt belongs to a sample that is enriched for the highest values.
assay.endpoint: PBM E-score
# print the numeric value only

Worked set:
- sequence: "CGATCCCA"
  assay.endpoint: "PBM E-score"
  observed.result: -0.0615
- sequence: "AGTAATTC"
  assay.endpoint: "PBM E-score"
  observed.result: 0.23
- sequence: "AGCGGACC"
  assay.endpoint: "PBM E-score"
  observed.result: -0.113

Proceeding to the next sequence to report its PBM E-score.
Reported PBM E-score, sequence "CAAACCGG" : ____
-0.0831

====

Known PBM E-score of a selection of sequences
# assayed.system: Cad1 (UniProt P24813)
# Sequence: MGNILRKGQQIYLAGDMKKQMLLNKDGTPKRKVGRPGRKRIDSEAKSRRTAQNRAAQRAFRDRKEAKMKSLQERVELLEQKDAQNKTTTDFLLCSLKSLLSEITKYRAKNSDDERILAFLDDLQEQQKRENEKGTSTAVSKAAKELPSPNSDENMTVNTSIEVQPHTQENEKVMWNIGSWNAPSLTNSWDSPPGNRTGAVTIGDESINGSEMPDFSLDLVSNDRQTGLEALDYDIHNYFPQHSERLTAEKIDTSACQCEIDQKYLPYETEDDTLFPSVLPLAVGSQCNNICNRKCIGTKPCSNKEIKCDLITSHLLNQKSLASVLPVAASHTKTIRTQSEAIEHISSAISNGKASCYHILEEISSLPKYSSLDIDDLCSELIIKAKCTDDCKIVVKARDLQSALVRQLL
# method: PBM E-score (8-mer binding enrichment) (E-score (-0.5 to 0.5)); higher = stronger / more preferred TF binding
# experimental.context: protein concentration: 100 nM; construct: GST-full length
In all, about 33,000 sequences were measured (“E-score (-0.5 to 0.5)”: median about -0.0014, highest 2% from about 0.25 on). The full list was thinned out, with the highest values kept by preference.
API doc: respond with a numeric literal and nothing else, no unit.

Record excerpt, results attached:
- sequence: "AAATAATC"
  PBM E-score: 0.198
- sequence: "AAATAATA"
  PBM E-score: 0.248
- sequence: "CATAGTAA"
  PBM E-score: 0.141
- sequence: "AAATAAAG"
  PBM E-score: -0.0232
- sequence: "ATTTTGTC"
  PBM E-score: 0.121

Need PBM E-score of "TATAGTAA" , thanks.
0.294

Can you share its PBM E-score? I mean this sequence: "CATTAATC"
0.153

Consider the sequence shown here: "ATATCATA" What is its recorded PBM E-score?
0.166

Fill in: PBM E-score of "CATTAATA" is ___
0.297

Please look up its PBM E-score: "AAAATAAA"
0.128

Fill in: PBM E-score of "CATTAATG" is ___
0.198

// PBM E-score lookup, key: "GCATCATA"
0.296

Data request, read-out PBM E-score, for "GATTAACA"
0.163

# query: PBM E-score of entry "ACATCATA"
0.105

What does the data say about its PBM E-score? Entry: "CGGGTTTC"
0.179

# lookup: PBM E-score of "GTATCATA"
0.288
